Where these numbers come from: PubChem BioAssay AID179

- Tested on: CEM cells HIV-1 protection, formazan growth assay
- test-protocol: NCI AIDS Antiviral Assay
- experimental-setup: measured here: growth of uninfected CEM cells
measurement-name: IC50

COc1ccc(NC(=O)CC2SC(=Nc3ccc(Cl)cc3C)NC2=O)c([N+](=O)[O-])c1 (configuration not stated); > 398 µM
C=C(Br)N(CC)CC; > 251 µM
O=C1c2c([nH]ccc2=O)-c2nccc3c2c1nc1ccccc13; 0.603 µM

Items follow; give IC50 for each.
1. COc1cccc2c(=O)c3c(O)c4cc(N(C)C)ccc4c(OC(C)=O)c3oc12
2. COC1OC(C(C)Br)C2OC(C)(C)OC12 (configuration not stated)

Reply text:
8.91 µM
> 200 µM
